System: T-47D breast
Method Notes: NCI tumour cell line growth inhibition, 48 h; in the data active means GI50 below about 0.43 µM; inactive means the rest
// classify into true = active, false = inactive

[Q] Which outcome was assigned to CCN1C(=O)N(CC)C2C1NN=c1s/c(=C\c3ccccc3F)c(=O)n12 (stereo not drawn) in this test?
[A] false

[Q] Which outcome was assigned to "C[C@H](N)C(=O)N[C@@H]1[C@H]2C(=C(O)C[C@@H](O)[C@@H]2O)C(=O)O[C@]1(C)C(Cl)Cl" in this test?
[A] false

[Q] Which outcome was assigned to "COC(=O)[C@H]1C(=O)[C@@]2(C)[C@H]([C@H](OC(=O)c3ccccc3)[C@]3(O)C[C@H](OC(=O)[C@H](O)[C@@H](NC(=O)c4ccc(F)cc4)c4ccccc4)C(C)=C1C3(C)C)[C@]1(OC(C)=O)CO[C@@H]1C[C@@H]2O" in this test?
[A] true

[Q] Which outcome was assigned to "O=C(CCCCCCCn1cc(-c2cccnc2)nn1)Nc1ccccc1-c1ccccc1" in this test?
[A] false

[Q] Which outcome was assigned to "CN[C@@H](C)C(=O)N[C@H]1CN(C(=O)CC(C)C)CC[C@H]2CC[C@@H](C(=O)NC(c3ccccc3)c3ccccc3)N2C1=O" in this test?
[A] false

[Q] Which outcome was assigned to C[C@@H](N)C1CCC(C(=O)Nc2ccncc2)CC1 (stereo partly drawn) in this test?
[A] false

[Q] Which outcome was assigned to "N=C(N)/N=C(\N)c1c(-c2cc(O)ccc2O)nc2sccn12" in this test?
[A] false

[Q] Which outcome was assigned to "COc1ccccc1/C=C/C(=O)c1c(O)cc2occc2c1OC" in this test?
[A] false

====

System: LOX IMVI melanoma
Method Notes: NCI tumour cell line growth inhibition, 48 h
Observable: TGI

Recorded TGI (compound "O=C(Cc1nc2ccccc2s1)Nc1ccc(Cl)cc1" ): > 100 µM

Recorded TGI (compound "CC(=O)[O-].CC(=O)[O-].O=C(N/N=C/c1cc(Cl)cc(Cl)c1O)c1ccncc1.[Ni+2]" ): > 100 µM

Recorded TGI (compound "CCSC(SCC)c1cc2c(cc1Br)OCO2" ): 38 µM

Recorded TGI (compound "O=C1C=CC(=O)c2c1cc([N+](=O)[O-])c1ccoc21" ): > 44.5 µM

Recorded TGI (compound CC1=C(C#N)C23C(=O)c4ccccc4C(O)=C2C(=O)C=CC3(O)N1 (stereo unspecified) ): 18.9 µM

Recorded TGI (compound "Cc1ccccc1N=CN(C)C" ): > 100 µM

====

Test system: MDA-MB-435
Method Notes: NCI tumour cell line growth inhibition, 48 h
Where a SMILES comes first, the peptide text is derived from it. [ ]: non-standard residue; d: D form. The star is where a group is joined. Phe(4-NO2) = N[CH](Cc1ccc([N+](=O)[O-])cc1)C(=O)O; Cbz = O=C(OCc1ccccc1)*
Exercise: for every item that follows, state its recorded TGI.

Bench note, MDA-MB-435: "CCN(CC)CC.CCOc1ccc(NC(=O)N=C=[N-])cc1.[CH-]1CCCCC1.[CH-]1CCCCC1.[CH-]1CCCCC1.[Cl-].[Sn+4]" , TGI reads 0.0296 µM

Bench note, MDA-MB-435: "O=C1C=CC(=O)c2c1cc([N+](=O)[O-])c1ccoc21" , TGI reads 26.2 µM

Bench note, MDA-MB-435: "COc1ccc2oc(=Nc3ccccc3)c(C(N)=O)cc2c1" , TGI reads > 24.4 µM

Bench note, MDA-MB-435: "Cc1n[n+](CC(=O)c2ccccc2)c2sc(N)nn12" , TGI reads > 100 µM

Bench note, MDA-MB-435: "CN[C@@H](C)C(=O)N[C@H]1CN(C(=O)CC(C)C)CC[C@H]2CC[C@@H](C(=O)NC(c3ccccc3)c3ccccc3)N2C1=O" , TGI reads > 100 µM

Bench note, MDA-MB-435: CCOC(=O)CCC(NC(=O)OCc1ccccc1)C(=O)NC(CCC(=O)OCC)C(=O)NC(Cc1ccc([N+](=O)[O-])cc1)C(=O)NC(CCC(=O)OCC)C(=O)NC(CCC(=O)OCC)C(=O)OCC (stereo not drawn) (Cbz-E(OEt)E(OEt)[Phe(4-NO2)]E(OEt)E(OEt)-OEt; configuration not given here) , TGI reads > 100 µM

Bench note, MDA-MB-435: CCN(CC)c1ccc(C2CC(c3cc(OC)c(OC)c(OC)c3)=NN2)cc1 (stereo not drawn) , TGI reads > 100 µM

Bench note, MDA-MB-435: "COc1cccc(C(=O)Nc2c3ccccc3nc3ccccc23)c1OC" , TGI reads > 100 µM
